assayed system: human PCSK9 (Homo sapiens)
Sequence (Q8NBP7 153-692): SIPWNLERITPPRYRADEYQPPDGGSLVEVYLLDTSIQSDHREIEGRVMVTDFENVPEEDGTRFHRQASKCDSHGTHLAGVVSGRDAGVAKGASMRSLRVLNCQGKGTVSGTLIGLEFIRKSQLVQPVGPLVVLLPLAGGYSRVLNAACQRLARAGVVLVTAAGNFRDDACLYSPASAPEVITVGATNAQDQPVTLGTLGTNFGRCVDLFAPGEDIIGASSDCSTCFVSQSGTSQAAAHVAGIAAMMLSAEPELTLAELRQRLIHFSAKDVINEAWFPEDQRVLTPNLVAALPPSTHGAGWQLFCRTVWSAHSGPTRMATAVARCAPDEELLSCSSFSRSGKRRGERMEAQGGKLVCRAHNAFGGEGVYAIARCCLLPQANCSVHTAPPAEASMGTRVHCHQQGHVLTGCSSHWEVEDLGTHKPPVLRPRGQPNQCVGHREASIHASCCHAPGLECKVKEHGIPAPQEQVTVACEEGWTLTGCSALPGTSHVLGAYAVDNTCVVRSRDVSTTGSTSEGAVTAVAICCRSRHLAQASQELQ
Sequence (Q8NBP7 31-152 partner limits assumed): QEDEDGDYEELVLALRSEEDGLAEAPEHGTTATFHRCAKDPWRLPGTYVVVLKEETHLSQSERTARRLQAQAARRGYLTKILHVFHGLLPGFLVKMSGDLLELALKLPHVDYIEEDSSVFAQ
measurement notes: PCSK9 ligand binding assay (TR-FRET): interference with binding of human PCSK9 to human LDLR
test context: PCSK9 FRET assay, efficacy (Amax); 0% = DMSO, 100% = 1 uM unlabeled human PCSK9
Bridge positions count the residues as written; N and C are the ends. Square brackets hold non-standard residues; d marks the D form. Peptide text beside a SMILES is read from it. Bip = N[C@@H](Cc1ccc(-c2ccccc2)cc1)C(=O)O; NMeF = CN[C@@H](Cc1ccccc1)C(=O)O; NMeA = CN[C@@H](C)C(=O)O
Each entry below carries its recorded Maximum % inhibition.
Supply the numeric figure in %, leaving out any unit text.

Please review the entries below; each comes with its answer.
# compound, Maximum % inhibition / %
records = [
    ("CCNC(=O)[C@@H]1CSCC(=O)N[C@@H](Cc2ccccc2)C(=O)N[C@@H](C(C)C)C(=O)N2CCC[C@H]2C(=O)N[C@@H]([C@@H](C)O)C(=O)N[C@@H]([C@@H](C)O)C(=O)N[C@@H](Cc2ccc(-c3ccccc3)cc2)C(=O)N(C)[C@@H](C)C(=O)N[C@@H](Cc2ccc(-c3ccccc3)cc2)C(=O)N(C)[C@@H](C)C(=O)N[C@@H](C)C(=O)N[C@@H](C)C(=O)N2CCC[C@H]2C(=O)N1 [Example 3-4] ({CH2CO}-FVPTT[Bip][NMeA][Bip][NMeA]AAPC-NHEt; thioether N-13)", 49),
    ("CC(C)[C@@H]1NC(=O)[C@H](Cc2ccccc2)NC(=O)CSC[C@@H](C(=O)NCC(N)=O)NC(=O)[C@@H]2CCCN2C(=O)[C@H](CCCNC(=N)N)NC(=O)[C@H](CC(=O)O)NC(=O)[C@H](C)N(C)C(=O)[C@H](Cc2ccc(-c3ccccc3)cc2)NC(=O)[C@H](Cc2ccccc2)N(C)C(=O)[C@H](CO)NC(=O)[C@H]([C@@H](C)O)NC(=O)[C@H]([C@@H](C)O)NC(=O)[C@H](CO)NC1=O [Example 1-9] ({CH2CO}-FVSTTS[NMeF][Bip][NMeA]DRPCG-NH2; thioether N-13)", 35),
    ("CC(C)[C@@H]1NC(=O)[C@H](Cc2ccccc2)NC(=O)CSC[C@@H](C(=O)NCC(N)=O)NC(=O)[C@@H]2CCCN2C(=O)[C@H](CO)NC(=O)[C@H](CCC(=O)O)NC(=O)[C@H](C)N(C)C(=O)[C@H](Cc2ccc(-c3ccccc3)cc2)NC(=O)[C@H](C)N(C)C(=O)[C@H](Cc2ccccc2)NC(=O)[C@H]([C@@H](C)O)NC(=O)[C@H]([C@@H](C)O)NC(=O)[C@H](CC(=O)O)NC1=O [Example 1-17] ({CH2CO}-FVDTTF[NMeA][Bip][NMeA]ESPCG-NH2; thioether N-13)", 91),
]

(Q) For human PCSK9 (Homo sapiens), provide Maximum % inhibition of CC(C)[C@@H]1NC(=O)[C@H](Cc2ccccc2)NC(=O)CSC[C@@H](C(N)=O)NC(=O)[C@@H]2CCCN2C(=O)[C@H](CCCNC(=N)N)NC(=O)[C@H](CC(=O)O)NC(=O)[C@H](C)N(C)C(=O)[C@H](Cc2ccc(-c3ccccc3)cc2)NC(=O)[C@H](C)N(C)C(=O)[C@H](Cc2ccc(-c3ccccc3)cc2)NC(=O)[C@H]([C@@H](C)O)NC(=O)[C@H]([C@@H](C)O)NC(=O)[C@H](CO)NC1=O [Example 2-4] ({CH2CO}-FVSTT[Bip][NMeA][Bip][NMeA]DRPC-NH2; thioether N-13) please.
(A) 28
